assay: modulation factor: IC50 (uM); type: functional
ENDPOINT: Modulation factor

COMPOUND: COc1ccc(C2CC(=O)c3c(OC(C)=O)cc(OCC(=O)N4CCN(Cc5ccc(OC)c(OC)c5OC)CC4)cc3O2)cc1OC(C)=O (centres undefined)
ENDPOINT_VALUE: 31

COMPOUND: COc1ccc(C2CC(=O)c3c(O)cc(OCC(=O)N4CCN(Cc5ccc(OC)c(OC)c5OC)CC4)cc3O2)cc1OC(C)=O (centres undefined)
ENDPOINT_VALUE: 31

COMPOUND: COc1ccc(CCN(C)CCCC(C#N)(c2ccc(OC)c(OC)c2)C(C)C)cc1OC (centres undefined) [VERAPAMIL]
ENDPOINT_VALUE: 31

COMPOUND: COc1ccc(-c2cc(=O)c3c(O)cc(O)cc3o2)cc1OCC(=O)N1CCN(Cc2ccc(OC)c(OC)c2OC)CC1
ENDPOINT_VALUE: 1
